# assayed_target: T1, human CD86-murine Ig fusion protein (human)
# T1 construct: Bought (Ancell #509-820); also called hCD86-mIg
# T1 chain: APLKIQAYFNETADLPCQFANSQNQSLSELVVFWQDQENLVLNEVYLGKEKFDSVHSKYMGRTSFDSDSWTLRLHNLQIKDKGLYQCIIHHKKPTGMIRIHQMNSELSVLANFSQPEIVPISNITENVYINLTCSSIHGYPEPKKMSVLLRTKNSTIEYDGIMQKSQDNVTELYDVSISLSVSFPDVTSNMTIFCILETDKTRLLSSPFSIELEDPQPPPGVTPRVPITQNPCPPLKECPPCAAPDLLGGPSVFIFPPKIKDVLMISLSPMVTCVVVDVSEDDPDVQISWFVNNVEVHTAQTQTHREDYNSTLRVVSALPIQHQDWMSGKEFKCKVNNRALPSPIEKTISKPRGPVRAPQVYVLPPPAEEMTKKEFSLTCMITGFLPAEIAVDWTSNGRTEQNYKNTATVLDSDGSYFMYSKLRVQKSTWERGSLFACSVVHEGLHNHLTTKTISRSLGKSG
# assay_details: SPR Biacore, hCD86-mIg captured
readout: Binding Avidity (Relative to Orencia)

| binder | reported_result |
| --- | --- |
| D3-70-IgG2 (Fc fusion) MHVAQPAVVLASSRGIASFVCEYESPGKANEVRVTVLRQADSQVTEVCAMTYMKGNELTFLDDPSCTGTFSGNQVNLTIQGLRAMDTGLYICKVELMYPPPYYEGIGNGTQIYVIDPEPCPDSDERKCCVECPPCPAPPVAGPSVFLFPPKPKDTLMISRTPEVTCVVVDVSHEDPEVQFNWYVDGVEVHNAKTKPREEQFNSTFRVVSVLTVVHQDWLNGKEYKCKVSNKGLPAPIEKTISKTKGQPREPQVYTLPPSREEMTKNQVSLTCLVKGFYPSDIAVEWESNGQPENNYKTTPPMLDSDGSFFLYSKLTVDKSRWQQGNVFSCSVMHEALHNHYTQKSLSLSPG | > 40 fold |

Identify the reported Binding Avidity (Relative to Orencia) for the following entry. D28-IgG2 (Fc fusion) MHVAQPAVVLASSRGIASFVCEYEAPHKANEVRVTVLRQAGSQVTEVCAMTYMMEDELTFLDDPSCTGTFSGNQVNLTIQGLRAADTGLYICKVELMYPPPYYLGLGNGTQIYVIDPEPCPDSDERKCCVECPPCPAPPVAGPSVFLFPPKPKDTLMISRTPEVTCVVVDVSHEDPEVQFNWYVDGVEVHNAKTKPREEQFNSTFRVVSVLTVVHQDWLNGKEYKCKVSNKGLPAPIEKTISKTKGQPREPQVYTLPPSREEMTKNQVSLTCLVKGFYPSDIAVEWESNGQPENNYKTTPPMLDSDGSFFLYSKLTVDKSRWQQGNVFSCSVMHEALHNHYTQKSLSLSPG
> 40 fold
